Cited source for all entries: ChEMBL document CHEMBL1275565

Experiment: AUC (0 to infinity) in HIV-negative human at 400 mg, po administered as single dose followed by 4 days wash out period followed by […] coadministered with compound at 400 mg, po on day 14
Type: ADME, organism-based
Parameters: dose 400 mg, time infinity, route oral
Details: plasma

# COMPOUND, READING UNIT, AUC(0-inf)
data = [
    ("Cc1nnc(C(=O)NC(C)(C)c2nc(C(=O)NCc3ccc(F)cc3)c(O)c(=O)n2C)o1 [RALTEGRAVIR]", "µM·h", 19.3),
]

* * *

Test: Primary phase half life in HIV-negative human at 400 mg, po administered as single dose followed by 4 days wash out period followed by efavirenz dosing at 600 mg, po bid for 14 days coadministered with compound at 400 mg, po on day 12
Format: ADME, organism-based
Settings: in vivo, in the assay text read “po qd for 14 days” for “po bid for 14 days”, read-out: alphat1/2 (converted)
READOUT: half-life (min)

# CPD SMILES, REPORTED VALUE
records = [
    ("Cc1nnc(C(=O)NC(C)(C)c2nc(C(=O)NCc3ccc(F)cc3)c(O)c(=O)n2C)o1", 57),
]
